# credit: the supplement of paper PMC9233669

- Test system: biotinyl-Phe-oxazolone
- measurement_notes: self-aminoacylation, catalytic enhancement (BFO) (fold over background); higher = more active; k-Seq, kA / k0A0; sequences stand for … in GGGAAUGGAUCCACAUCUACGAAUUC…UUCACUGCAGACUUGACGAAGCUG
This sample holds only a part of the variants without activity.
Classes by self-aminoacylation: low (below 5), intermediate (5 to below 20), high (20 or more)

Solved entries:
In [3]: df
Out[3]:
                           sequence_content            assay_target  category_label
0  CUGCUUUAAACAAUCGGUCUG [Fam1A.1 aminoacylation ribozyme variant]  biotinyl-Phe-oxazolone             low
1  AUUCAUCUAGGUCAUCGGGCG [Fam2.2 aminoacylation ribozyme variant]  biotinyl-Phe-oxazolone    intermediate
2  CUUCACCGAGGUCAUCGGGUG [Fam2.2 aminoacylation ribozyme variant]  biotinyl-Phe-oxazolone            high
3  GUUCACCUAGGUCAUCGGAUG [Fam2.2 aminoacylation ribozyme variant]  biotinyl-Phe-oxazolone             low
4  AUUCACCCAGGUCAUCGGGUC [Fam2.2 aminoacylation ribozyme variant]  biotinyl-Phe-oxazolone    intermediate

Category of AUUACCCUUGUCAUCAAGUGA [Fam2.1 aminoacylation ribozyme variant] : intermediate

Category of AUUACACGGGUCAUCGAGUGA [Fam2.1 aminoacylation ribozyme variant] : high

Category of AUUACCCUGGUCAACGGGUGA [Fam2.1 aminoacylation ribozyme variant] : high

* * *

- System: biotinyl-Leu-oxazolone
- measurement_notes: self-aminoacylation, catalytic enhancement (BLO) (fold over background); higher = more active; k-Seq, kA / k0A0; sequences stand for … in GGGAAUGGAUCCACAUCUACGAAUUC…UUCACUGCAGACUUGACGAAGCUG
Variants at the floor of the assay were thinned out.
A collection of sequences and their measured self-aminoacylation
Response field accepts a number only; no unit should be typed.

In [3]: df
Out[3]:
                           sequence_content  quantitative_readout
0  AUCCACCGAGGUCAUCGGGUG [Fam2.2 aminoacylation ribozyme variant]                  13.4

Answer with reported self-aminoacylation of CCACACUUCAAGCAAUCGACC [Fam1B.1 aminoacylation ribozyme variant] 0.399

Answer with reported self-aminoacylation of ACACACUUCAAGCAAUCGGUU [Fam1B.1 aminoacylation ribozyme variant] 2.26

Answer with reported self-aminoacylation of AUUACCCUGGCCCUCGAGUGA [Fam2.1 aminoacylation ribozyme variant] 4.5

* * *

- System: biotinyl-Val-oxazolone
- measurement_notes: self-aminoacylation, catalytic enhancement (BVO) (fold over background); higher = more active; k-Seq, kA / k0A0; sequences stand for … in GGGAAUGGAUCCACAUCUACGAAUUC…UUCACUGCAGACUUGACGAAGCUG
Variants at the floor of the assay were thinned out.
endpoint_name: self-aminoacylation

                           sequence_content  result
0  CCACACUUCCUGCAAUCGGUC [Fam1B.1 aminoacylation ribozyme variant]    1.19

Answer with reported self-aminoacylation of CUACUUCCAGCAAUCGGUCUG [Fam1A.1 aminoacylation ribozyme variant] 0.961

Answer with reported self-aminoacylation of AUUCACCUAGUACAUCGGGUG [Fam2.2 aminoacylation ribozyme variant] 1.65

Answer with reported self-aminoacylation of AAGUUUGCUAAAAGUCGGAAG [Fam3.1 aminoacylation ribozyme variant] 0.924

Answer with reported self-aminoacylation of CUACUUCGAACAAUCGUUCUG [Fam1A.1 aminoacylation ribozyme variant] 0.49

Answer with reported self-aminoacylation of AUGGACCUAGGUCAUCGGGUG [Fam2.2 aminoacylation ribozyme variant] 3.04

Answer with reported self-aminoacylation of AUUACCCUGGCCAUCGGGUGA [Fam2.1 aminoacylation ribozyme variant] 6.42

Answer with reported self-aminoacylation of AUUACUCUGGUCAUCGAGUGC [Fam2.1 aminoacylation ribozyme variant] 1.05

Answer with reported self-aminoacylation of AUGCACCAAGGUCAUCGGGUG [Fam2.2 aminoacylation ribozyme variant] 5.23

Answer with reported self-aminoacylation of AAGUUUGCUAAUAGCCGCACG [Fam3.1 aminoacylation ribozyme variant] 1.21

Answer with reported self-aminoacylation of CUCACCCUGGUCAUCGAGUGA [Fam2.1 aminoacylation ribozyme variant] 4.49

* * *

- System: biotinyl-Leu-oxazolone
- measurement_notes: self-aminoacylation, catalytic enhancement (BLO) (fold over background); higher = more active; k-Seq, kA / k0A0; sequences stand for … in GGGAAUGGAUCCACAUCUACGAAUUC…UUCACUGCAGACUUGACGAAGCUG
Variants at the floor of the assay were thinned out.
Assign class by self-aminoacylation: not lower than 2 means TRUE; lower than 2 means FALSE.

>>> print(df.to_string())
                           sequence_content            assay_target  category_label
0  AAGUCUGCUCAUAGUCGCAAG [Fam3.1 aminoacylation ribozyme variant]  biotinyl-Leu-oxazolone           FALSE

Exam item: decide whether the reported self-aminoacylation for AUUAUCCUGGCCAUCGAGUGA [Fam2.1 aminoacylation ribozyme variant] is at least 2. TRUE

Exam item: decide whether the reported self-aminoacylation for AUUACCGUGGUCAUCGAGUGU [Fam2.1 aminoacylation ribozyme variant] is at least 2. TRUE

Exam item: decide whether the reported self-aminoacylation for AAGUUUGGUAAUAGUCGCAGG [Fam3.1 aminoacylation ribozyme variant] is at least 2. FALSE

Exam item: decide whether the reported self-aminoacylation for CCACUCUUCAAGCAAUCGAUC [Fam1B.1 aminoacylation ribozyme variant] is at least 2. FALSE

Exam item: decide whether the reported self-aminoacylation for CUACUUCAAACAAUCGCUCAG [Fam1A.1 aminoacylation ribozyme variant] is at least 2. FALSE

Exam item: decide whether the reported self-aminoacylation for AAUCACCUAGGUCAUCGGUUG [Fam2.2 aminoacylation ribozyme variant] is at least 2. FALSE

Exam item: decide whether the reported self-aminoacylation for AAGUUUUCUAAUAGUCGGAAG [Fam3.1 aminoacylation ribozyme variant] is at least 2. FALSE

Exam item: decide whether the reported self-aminoacylation for CUACUACAAACAAUCGGACUG [Fam1A.1 aminoacylation ribozyme variant] is at least 2. FALSE

Exam item: decide whether the reported self-aminoacylation for AAUUUUGCUAAUAGUCGCAAA [Fam3.1 aminoacylation ribozyme variant] is at least 2. TRUE

Exam item: decide whether the reported self-aminoacylation for AAGUUUGCGAAUAGUCCCAAG [Fam3.1 aminoacylation ribozyme variant] is at least 2. FALSE

Exam item: decide whether the reported self-aminoacylation for CUACAUCAAACAAUCUGUCUG [Fam1A.1 aminoacylation ribozyme variant] is at least 2. FALSE

Exam item: decide whether the reported self-aminoacylation for AAGCUUGCUAACAGUCGCAAG [Fam3.1 aminoacylation ribozyme variant] is at least 2. TRUE

* * *

- Test system: biotinyl-Trp-oxazolone
- measurement_notes: self-aminoacylation, catalytic enhancement (BWO) (fold over background); higher = more active; k-Seq, kA / k0A0; sequences stand for … in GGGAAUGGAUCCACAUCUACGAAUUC…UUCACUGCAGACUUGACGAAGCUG
Fewer inactive variants are shown than the library holds.
Assign class by self-aminoacylation: not lower than 3 means label 1; lower than 3 means label 0.

Solved entries:
In [3]: df
Out[3]:
                           sequence_content  category_label
0  CAGCACUUCAAGCAAUCGGUC [Fam1B.1 aminoacylation ribozyme variant]         label 1
1  CGACACUACAAGCAAUCGGUC [Fam1B.1 aminoacylation ribozyme variant]         label 0
2  CGACUUCAAAAAAUCGGUCUG [Fam1A.1 aminoacylation ribozyme variant]         label 1
3  AAGCUUGCUAAUAGGCGCAAG [Fam3.1 aminoacylation ribozyme variant]         label 0
4  CUAUUUCAAACAAUCGGUUUG [Fam1A.1 aminoacylation ribozyme variant]         label 1

Exam item: decide whether the reported self-aminoacylation for AAGUUUGUUAAUAGUCGCAGG [Fam3.1 aminoacylation ribozyme variant] is at least 3. label 0

Exam item: decide whether the reported self-aminoacylation for AAGUUAGCUAAUAAUCGCAAG [Fam3.1 aminoacylation ribozyme variant] is at least 3. label 0

Exam item: decide whether the reported self-aminoacylation for AUUCACCUAGGUCGUCGCGUG [Fam2.2 aminoacylation ribozyme variant] is at least 3. label 1

Exam item: decide whether the reported self-aminoacylation for AUACCUCAAACAAUCGGUCUG [Fam1A.1 aminoacylation ribozyme variant] is at least 3. label 0

Exam item: decide whether the reported self-aminoacylation for AAGUUUACUAAUAGUCACAAG [Fam3.1 aminoacylation ribozyme variant] is at least 3. label 0

Exam item: decide whether the reported self-aminoacylation for CUACUUCAAACUACCGGUCUG [Fam1A.1 aminoacylation ribozyme variant] is at least 3. label 0

Exam item: decide whether the reported self-aminoacylation for AUACUUCAAACAAUCGGUCUU [Fam1A.1 aminoacylation ribozyme variant] is at least 3. label 1

Exam item: decide whether the reported self-aminoacylation for AUUAUCCUGGGCAUCGAGUGA [Fam2.1 aminoacylation ribozyme variant] is at least 3. label 1

Exam item: decide whether the reported self-aminoacylation for UGUCACCUAGGUCAUCGGGUG [Fam2.2 aminoacylation ribozyme variant] is at least 3. label 1
